molecular target: SMARCA4 (Homo sapiens, UniProt P51532); construct: SMARCA2/SMARCA4 protein degradation selectivity in MV4-11 cells; endogenous in cells; host or cells: MV4-11; experiment: SMARCA4 Western blot degradation in MV4-11 cells; type: cell-based; conditions: MV4-11 cells, 24 h; read-out: SMARCA4 MSD MV411 degradation 24 h: Mean external-Abs DC50
Sequence (P51532 whole entry): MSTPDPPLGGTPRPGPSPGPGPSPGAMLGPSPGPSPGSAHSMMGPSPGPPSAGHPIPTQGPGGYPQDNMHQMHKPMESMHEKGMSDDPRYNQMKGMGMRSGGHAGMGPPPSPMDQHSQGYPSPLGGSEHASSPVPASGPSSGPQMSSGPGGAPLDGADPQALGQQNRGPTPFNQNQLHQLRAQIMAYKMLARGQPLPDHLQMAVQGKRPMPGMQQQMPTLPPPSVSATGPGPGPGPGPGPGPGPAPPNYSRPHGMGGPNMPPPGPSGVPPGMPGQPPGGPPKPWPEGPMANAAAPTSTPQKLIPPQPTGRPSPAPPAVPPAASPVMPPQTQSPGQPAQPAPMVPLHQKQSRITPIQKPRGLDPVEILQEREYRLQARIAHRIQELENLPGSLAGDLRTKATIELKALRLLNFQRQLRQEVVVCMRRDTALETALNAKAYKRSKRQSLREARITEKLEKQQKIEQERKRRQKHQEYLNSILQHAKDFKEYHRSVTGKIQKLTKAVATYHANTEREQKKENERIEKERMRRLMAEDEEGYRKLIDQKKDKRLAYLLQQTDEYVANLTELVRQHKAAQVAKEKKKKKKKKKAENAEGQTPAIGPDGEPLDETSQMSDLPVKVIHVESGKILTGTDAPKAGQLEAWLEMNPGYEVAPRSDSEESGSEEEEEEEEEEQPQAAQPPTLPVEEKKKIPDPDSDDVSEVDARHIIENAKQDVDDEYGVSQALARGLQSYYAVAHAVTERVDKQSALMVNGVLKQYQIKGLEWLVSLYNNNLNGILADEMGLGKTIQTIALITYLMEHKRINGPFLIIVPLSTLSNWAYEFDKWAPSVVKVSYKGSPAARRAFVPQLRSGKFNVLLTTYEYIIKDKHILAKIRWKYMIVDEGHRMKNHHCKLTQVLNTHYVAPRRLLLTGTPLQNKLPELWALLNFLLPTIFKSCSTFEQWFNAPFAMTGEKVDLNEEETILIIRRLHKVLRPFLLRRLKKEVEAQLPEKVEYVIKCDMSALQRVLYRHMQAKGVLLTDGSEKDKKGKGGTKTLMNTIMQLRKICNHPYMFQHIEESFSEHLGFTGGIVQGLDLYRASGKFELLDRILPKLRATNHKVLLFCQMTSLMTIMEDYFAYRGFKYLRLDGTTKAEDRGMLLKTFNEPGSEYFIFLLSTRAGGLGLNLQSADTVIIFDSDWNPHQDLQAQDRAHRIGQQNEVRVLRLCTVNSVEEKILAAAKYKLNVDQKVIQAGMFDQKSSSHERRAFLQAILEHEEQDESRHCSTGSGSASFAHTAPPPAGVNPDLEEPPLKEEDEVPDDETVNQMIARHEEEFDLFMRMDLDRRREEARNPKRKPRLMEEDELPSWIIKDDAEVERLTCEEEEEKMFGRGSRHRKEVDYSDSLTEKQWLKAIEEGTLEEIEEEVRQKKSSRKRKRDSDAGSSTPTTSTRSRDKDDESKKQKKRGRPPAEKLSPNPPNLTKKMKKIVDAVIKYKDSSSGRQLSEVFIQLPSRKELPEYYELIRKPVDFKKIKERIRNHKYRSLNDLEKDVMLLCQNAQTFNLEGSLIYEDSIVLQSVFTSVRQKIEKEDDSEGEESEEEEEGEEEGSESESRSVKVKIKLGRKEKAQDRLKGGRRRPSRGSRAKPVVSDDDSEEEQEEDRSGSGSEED
result.type: DC50

Recorded DC50, per entry:
* C#Cc1ccc(CNC(=O)[C@@H]2C[C@@H](O)CN2C(=O)[C@@H](NC(=O)N2CC3(CN(CC4CCN(c5cnc(N6CCc7[nH]c8nnc(-c9ccccc9O)cc8c7[C@@H]6C)nc5)CC4)C3)C2)C(C)(C)C)cc1 [I-165] | > 100 nM
* Cc1ncsc1-c1ccc(CNC(=O)[C@@H]2C[C@@H](O)CN2C(=O)[C@@H](NC(=O)N2CC3(CC(N4CCC(c5cnc(N6CCN7c8cc(-c9ccccc9O)nnc8NC[C@H]7C6)nc5)CC4)C3)C2)C(C)(C)C)cc1 [I-64] | 10 to 100 nM
* C#Cc1ccc(CNC(=O)[C@@H]2C[C@@H](O)CN2C(=O)[C@@H](NC(=O)[C@H]2CCC3(CC2)C[C@H](N2CCC(c4cnc(N5CCN6c7cc(-c8ccccc8O)nnc7NC[C@H]6C5)nc4)CC2)C3)C(C)(C)C)cc1 (single isomer, unassigned) [I-25] | 10 to 100 nM

// moving on: another record for DC50
Q: Which DC50 is listed for Cc1ncsc1-c1ccc(CNC(=O)[C@@H]2C[C@@H](O)CN2C(=O)[C@@H](c2cc(N3CC4(CC(N5CCC(c6cnc(N7CCN8c9cc(-c%10ccccc%10O)nnc9NC[C@H]8C7)nc6)CC5)C4)C3)no2)C(C)C)cc1 (single isomer, unassigned) [I-55] ?
Result: < 1 nM
